- procedure text: Measurement of solution absorption spectrum (colorability evaluation)
- Type: physicochemical
- test parameters: chloroform solution, 1 cm cell; wavelength showing light absorption coefficient ε of 1000 in the region of 300 nm or more
# λ (1000) annotations

{"columns": ["compound", "display unit", "λ (1000)"],
 "data": [
  ["C=CC(=O)OCCc1ccc(C#Cc2ccc(COc3ccc(C#Cc4ccc(CCOC(=O)C=C)cc4)cc3C)cc2)cc1 [Compound A-3]", "nm", 327],
  ["C=CC(=O)OCCc1ccc(C#Cc2ccc(COc3ccc(C#Cc4ccc(CCOC(=O)C=C)cc4)cc3C(=O)OC)cc2)cc1 [Compound A-6]", "nm", 343],
  ["C=CC(=O)OCCc1ccc(C#Cc2ccc(COc3ccc(C#Cc4ccc(CCOC(=O)C=C)cc4)cc3C(=O)OC(C)(C)C)cc2)cc1 [Compound A-7]", "nm", 339],
  ["C=CC(=O)OCCc1ccc(C#Cc2ccc(COc3ccc(C#Cc4ccc(CCOC(=O)C=C)cc4)cc3C(C)(C)C)cc2)cc1 [Compound A-5]", "nm", 329],
  ["CC(=O)OCCCCCCCCCCOc1ccc(C#Cc2ccc(OC(=O)c3ccc(C#Cc4ccc(OCCCCCCCCCCOC(C)=O)c(F)c4)cc3)cc2)cc1F [Compound B-1, reference compound]", "nm", 364],
  ["C=CC(=O)OCCc1ccc(C#Cc2ccc(CCc3ccc(C#Cc4ccc(CCOC(=O)C=C)cc4)cc3)cc2)cc1 [Compound A-1]", "nm", 320],
  ["C=CC(=O)OCCc1ccc(C#Cc2ccc(COc3ccc(C#Cc4ccc(CCOC(=O)C=C)cc4)cc3C(F)(F)F)cc2)cc1 [Compound A-4]", "nm", 325],
  ["C=CC(=O)OCCc1ccc(C#Cc2ccc(COc3ccc(C#Cc4ccc(CCOC(=O)C=C)cc4)cc3)cc2)cc1 [Compound A-2]", "nm", 327]
]}

###

- procedure text: Measurement of Δn (refractive index anisotropy), wedge-shaped liquid crystal cell
- Type: physicochemical
- test parameters: at 550 nm and 30° C.; for compounds liable to crystallize estimated from extrapolated values of mixtures with other liquid crystals

{"columns": ["compound", "Δn"],
 "data": [
  ["CC(=O)OCCCCCCCCCCOc1ccc(C#Cc2ccc(OC(=O)c3ccc(C#Cc4ccc(OCCCCCCCCCCOC(C)=O)c(F)c4)cc3)cc2)cc1F [Compound B-1, reference compound]", 0.25],
  ["C=CC(=O)OCCc1ccc(C#Cc2ccc(COc3ccc(C#Cc4ccc(CCOC(=O)C=C)cc4)cc3)cc2)cc1", 0.34],
  ["C=CC(=O)OCCc1ccc(C#Cc2ccc(COc3ccc(C#Cc4ccc(CCOC(=O)C=C)cc4)cc3C(F)(F)F)cc2)cc1", 0.36],
  ["C=CC(=O)OCCc1ccc(C#Cc2ccc(COc3ccc(C#Cc4ccc(CCOC(=O)C=C)cc4)cc3C(C)(C)C)cc2)cc1", 0.33],
  ["C=CC(=O)OCCc1ccc(C#Cc2ccc(CCc3ccc(C#Cc4ccc(CCOC(=O)C=C)cc4)cc3)cc2)cc1", 0.30]
]}

// data source = patent US11390812B2
